Source of measurements: patent US20220064329A1

Exercise: for every item that follows, state its recorded Kd.
Target: T1, recombinant human activated Factor VII (FVIIa) (human, UniProt P08709 61-212; P08709 213-466, ten glutamate residues of the Gla domain may be gamma-carboxylated)
T1 construct: chains tethered by a disulfide bond; also called Factor VIIa; rFVIIa
T1 sequence 1: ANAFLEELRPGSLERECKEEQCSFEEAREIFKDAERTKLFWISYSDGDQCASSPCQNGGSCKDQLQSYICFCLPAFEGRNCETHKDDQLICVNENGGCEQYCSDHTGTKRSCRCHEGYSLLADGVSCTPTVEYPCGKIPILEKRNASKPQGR
T1 sequence 2: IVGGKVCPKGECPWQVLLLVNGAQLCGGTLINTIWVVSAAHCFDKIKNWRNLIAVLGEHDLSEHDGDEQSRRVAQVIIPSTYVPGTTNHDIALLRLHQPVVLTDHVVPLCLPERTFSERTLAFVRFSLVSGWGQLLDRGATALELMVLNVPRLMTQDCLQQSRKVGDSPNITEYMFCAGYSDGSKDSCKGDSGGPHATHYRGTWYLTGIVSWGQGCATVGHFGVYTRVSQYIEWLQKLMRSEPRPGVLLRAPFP
Test: BLI (Fortebio)

# map each binder to its Kd
1. VH SEQ ID NO 602 / VL SEQ ID NO 430 (antibody, IgG4, V domains shown, humanized 11F2; IgG4 S228P/kappa) VH: QVQLQESGPGLVKPSQTLSLTCTVSGGSISSDSAWSWIRQPPGKGLEWIGYIQYSGSTNYNPSLKSRVTISVDTSKNQFSLKLSSVTAADTAVYYCARSVNYYGNSFAVGYWGQGTLVTVSS VL: EIVLTQSPATLSLSPGERATLSCRASQGVSDYLAWYQQKPGQAPRLLIKYASQPATGIPARFSGSGSGTDFTLTISSLEPEDFGVYYCQNGHSFPLTFGQGTKLEIK
2. VH SEQ ID NO 610 / VL SEQ ID NO 454 (antibody, IgG4, V domains shown, humanized 11F2; IgG4 S228P/kappa) VH: QVQLQESGPGLVKPSQTLSLTCTVSGGSITSDSAWSWIRQPPGKGLEWIGYIQYSGSTNYNPSLKSRVTISVDTSKNQFSLKLSSVTAADTAVYYCARSVNYYGNSFAVGYWGQGTLVTVSS VL: EIVLTQSPATLSLSPGERATLSCRASQGVSDYLHWYQQKPGEAPRLLIKYASQPATGIPARFSGSGSGTDFTLTISSLEPEDFAVYYCQNGHSFPLTFGQGTKLEIK
3. VH SEQ ID NO 626 / VL SEQ ID NO 438 (antibody, IgG4, V domains shown, humanized 11F2; IgG4 S228P/kappa) VH: QVQLQESGPGLVKPSQTLSLTCTVSGYSISSDSAWSWIRQPPGKGLEWIGYIQYSGSTNYNPSLKSRVTISRDTSKNQFSLKLSSVTAADTAVYYCARSVNYYGNSFAVGPWGQGTLVTVSS VL: EIVLTQSPATLSLSPGERATLSCRASQGVSDYLAWYQQKPGQAPRLLIKYASQPATGIPARFSGSGSGTDFTLTISSLEPEDVAVYYCQNGHSFPLTFGQGTKLEIK
4. VH SEQ ID NO 634 / VL SEQ ID NO 390 (antibody, IgG4, V domains shown, humanized 11F2; IgG4 S228P/kappa) VH: QVQLQESGPGLVKPSQTLSLTCTVSGYSISSDSAWSWIRQPPGKGLEWIGYIQYSGSTNYNPSLKSRVTISRDTSKNQFSLKLSSVTAADTAVYYCARSVNYYGNSFAVGYWGQGTLVTVSS VL: EIVLTQSPATLSLSPGERATLSCRASQGVSDYLAWYQQKPGEAPRLLIKYASQPATGIPARFSGSGSGTDFTLTISSLEPEDFAVYYCQNGHSFPLTFGQGTKLEIK
5. VH SEQ ID NO 314 / VL SEQ ID NO 454 (antibody, IgG4, V domains shown, humanized 11F2; IgG4 S228P/kappa) VH: QVQLQESGPGLVEPSDTLSLTCAVSGYSISSDSAWSWIRQPPGKGLEWIGYIQYSGSTNYNPSLKSRVTMSVDTSKNQFSLKLSSVTALDTAVYYCARSVNYYGNSFAVGPWGQGTLVTVSS VL: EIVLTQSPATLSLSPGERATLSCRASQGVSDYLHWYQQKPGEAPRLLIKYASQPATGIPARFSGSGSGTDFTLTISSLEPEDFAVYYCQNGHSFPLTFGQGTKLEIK

Given back:
1: 590 nM; 2: 16 nM; 3: 77 nM; 4: 4.3 nM; 5: 32 nM
